Let's look at some compounds and their measured growth.
Tested on: HOP-62 NSCLC
Test: NCI-60 one-dose screen, 48 h (100 = growth as untreated, 0 = no growth, -100 = all killed)
Details: 10 µM unless noted
Description: Growth inhibition of the HOP-62 human Non-Small Cell Lung tumor cell line is measured as a screen for anti-cancer activity. Cells are grown in 96 well plates and exposed to the test compound for 48 hours. Compounds are tested at a single concentration, which is 10^-5 M for most compounds. The reported endpoint is percent growth (GI% or GIPRCNT), where numbers from 0 - 100% represent growth inhibition, and numbers from -100% - 0 represent cell death. […]
Compounds without any hit were thinned out: in the full panel of roughly 83,000, 20% have a hit.
parameter measured: growth (%)

[[record]]
structure_smiles = "Nc1c(C(=O)c2ccc(Br)cc2)oc2nc(-c3cnccn3)cc(-c3cccs3)c12"
value_reported = 94

[[record]]
structure_smiles = "COc1ccc(C(=O)c2cc(C(=O)/C=C/c3c(Cl)cccc3Cl)c3cc(C)ccn23)cc1"
value_reported = 98.5

[[record]]
structure_smiles = "COc1ccc(/C=N/NC(=O)c2[nH]c3ccc(Br)cc3c2-c2ccccc2)s1"
value_reported = 47.6


====

System: SNB-75 CNS
Assay: NCI-60 one-dose screen, 48 h (100 = growth as untreated, 0 = no growth, -100 = all killed)
Conditions: 10 µM unless noted
Compounds without any hit were thinned out: in the full panel of roughly 83,000, 20% have a hit.
parameter measured: growth (%)

[[record]]
structure_smiles = "CS(=O)(=O)c1ccc(-c2nc3ccccn3c2/C=N/Nc2nc(-c3ccc(Br)cc3)cs2)cc1"
study_target = "SNB-75 CNS"
value_reported = 114

[[record]]
structure_smiles = "Clc1ccc(Cc2nnc3sc(-c4cccnc4)nn23)cc1"
study_target = "SNB-75 CNS"
value_reported = 94.4

[[record]]
structure_smiles = "N#Cc1c(-c2ccc(Cl)cc2)nc(SCc2ccc([N+](=O)[O-])cc2)nc1N1CCNCC1"
study_target = "SNB-75 CNS"
value_reported = 28.1

[[record]]
structure_smiles = "Cc1cc2nc3c4cc(Cl)ccc4n(CC(=O)NCCN(C)C)c3nc2cc1C"
study_target = "SNB-75 CNS"
value_reported = 64.1

[[record]]
structure_smiles = "O=C(O)CCCCCN1C(=O)/C(=C/c2ccc(O)c(O)c2)SC1=S"
study_target = "SNB-75 CNS"
value_reported = 95.1

[[record]]
structure_smiles = "N#Cc1nc(-c2ccccc2)oc1S(=O)(=O)N1CCN(CCc2ccccn2)CC1"
study_target = "SNB-75 CNS"
value_reported = 87.2

[[record]]
structure_smiles = "NC(=O)c1c(NC(=O)c2ccc(C3CCCCC3)cc2)sc2c1CCC(=O)C2"
study_target = "SNB-75 CNS"
value_reported = 43.2

[[record]]
structure_smiles = "C#Cc1nc(C2=C(C)C(=N\\O)/C(=N/O)C2)cs1"
study_target = "SNB-75 CNS"
value_reported = 60

[[record]]
structure_smiles = "Oc1c(Cl)cc(Cl)c2ccc(CN3CCCCC3)nc12"
study_target = "SNB-75 CNS"
value_reported = 83.3

[[record]]
structure_smiles = "COc1cccc(-c2nn(-c3ccccc3)cc2-c2ccnc(N3CCN(C(=O)Nc4ccc(F)cc4)CC3)c2)c1"
study_target = "SNB-75 CNS"
value_reported = 66.5

